experimental protocol: restored growth of temperature-sensitive Mot1-301 yeast – S. cerevisiae, ATP luminescence, 38.5C, SUMOylation pathway inhibitor project, primary screen (AID 2716);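 also: OY570 slx delta 5 strain wells were the positive control but not used for scaling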
condition set: S. cerevisiae Mot1-301 growth rescue, at 18.8 µM, stronger effect = higher value, percent above DMSO median, 100 means doubled
About 3,300 (1%) of roughly 320,000 compounds were called active. The full list was thinned out, with actives kept by preference.
property: growth rescue (%)
Give bare numbers, in %.

C=Cc1ccc(C(=O)N2CCCC(CCC(=O)N3CCN(c4ccccn4)CC3)C2)cc1 (stereo not given) = -28.8
COc1ccc(OCCCC(=O)Oc2ccc(OC)cc2)cc1 = -3.53
COc1ccc(OCCC(=O)c2ccc(OC)cc2)cc1 = 614

Parameter requested: growth rescue. Apply to each item below.
1. COCCn1c(C)cc(C(=O)CSc2nnc(C3CC3)n2C2CC2)c1C
2. C#CCOCCOCCOCCNc1nc(N2CCN(C(=O)[C@H](CCC(=O)O)n3cc(CN)nn3)CC2)nc(N2CCN(C(=O)[C@H](CCC(=O)O)n3cc(CN)nn3)CC2)n1
3. O=S(=O)(NCC1OCCc2ccccc21)c1ccccc1 (stereo not given)
4. O=C(COc1ccc([N+](=O)[O-])cc1Cl)Nn1cnnc1
5. Cc1cccc(C(=O)N[C@H](C(=O)NCc2cccs2)C(C)C)c1
6. COc1ccc(CCC(=O)c2ccc(OC)cc2)cc1
7. COc1cc(/C=N/O)cc(Br)c1OS(=O)(=O)c1ccc(C)cc1

[9.96, -22.6, -12.3, 88.2, 14.3, 34.5, 13.1]

====

experimental protocol: restored growth of temperature-sensitive Mot1-301 yeast – S. cerevisiae, ATP luminescence, 38.5C, SUMOylation pathway inhibitor project, primary screen (AID 2716);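 also: OY570 slx delta 5 strain wells were the positive control but not used for scaling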
condition set: S. cerevisiae Mot1-301 growth rescue, at 18.8 µM, percent above DMSO median, 100 means doubled
The whole screen tested about 320,000 compounds, of which about 3,300 (1%) were called active.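 Rule for the calls: active = every valid replicate shows activation above 250% relative to neutral control wells; inactive = the rest, any valid replicate at or below 250%.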 For the sample, actives were picked, then their nearest neighbours and some compounds at random.
Respond with a class label; see 1 (yes) for active, 0 (no) for inactive

Some entries whose results are on file:
O=C(CN1C(=O)/C(=C\c2ccc(C(F)(F)F)cc2)Sc2ccccc21)NCc1ccco1 = 1 (yes)
Cc1ccc(CNC(=O)COC(=O)C2CCC2)cc1 = 0 (no)
O=C1CCC(=O)N1CCOP1(=O)COc2ccccc2OC1 = 1 (yes)
Cc1ccc(S(=O)(=O)N(C)C)cc1NC(=O)COC(=O)c1c(C)noc1C = 1 (yes)

// return assay outcome for Cc1ccnc(N2C(=O)c3ccccc3C2Nc2ccc3c(c2)OCCO3)c1 (stereo unspecified)
0 (no)

// return assay outcome for COCCCN1C(=O)c2ccc(C(=O)OCC(=O)NCc3ccccc3OC)cc2C1=O
0 (no)

====

experimental protocol: restored growth of temperature-sensitive Mot1-301 yeast – S. cerevisiae, ATP luminescence, 38.5C, SUMOylation pathway inhibitor project, primary screen (AID 2716);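 also: OY570 slx delta 5 strain wells were the positive control but not used for scaling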
condition set: S. cerevisiae Mot1-301 growth rescue, at 18.8 µM, percent above DMSO median, 100 means doubled
Among all 320,000 compounds or so, about 3,300 (1%) were called active.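 Rule for the calls: active = every valid replicate shows activation above 250% relative to neutral control wells; inactive = the rest, any valid replicate at or below 250%.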 Shown is part of a subset that was picked to be rich in actives.
Respond with a class label; see 1.0 (active), 0.0 (inactive)

COc1ccc(NC(=O)CSc2ccc(-c3ccco3)nn2)c(OC)c1 = 0.0
CCCCc1c(O)nc2n(c1=O)CCS2 = 0.0

// return assay outcome for Cc1csc2nc(O)c(C(=O)NCCN3CCOCC3)c(=O)n12
0.0

// return assay outcome for Cc1nc(SCC(=O)NC2CCCC2)[nH]c(=O)c1C
0.0

// return assay outcome for Clc1ccc(Nc2ccc3ccccc3n2)cc1
0.0

// return assay outcome for CC(Sc1ncnc2c1cnn2-c1ccccc1)C(=O)Nc1ccc(N2CCOCC2)cc1 (stereo unspecified)
0.0

// return assay outcome for CS(=O)(=O)N(CC(=O)N/N=C/c1ccccn1)c1ccc(Oc2ccccc2)cc1
0.0

// return assay outcome for CCOc1ccc(N(CC(=O)NCCOc2ccccc2OC)S(=O)(=O)c2ccccc2)cc1
0.0

====

Assignment: determine reported growth rescue for the given compounds.
experimental protocol: restored growth of temperature-sensitive Mot1-301 yeast – S. cerevisiae, ATP luminescence, 38.5C, SUMOylation pathway inhibitor project, primary screen (AID 2716);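 also: OY570 slx delta 5 strain wells were the positive control but not used for scaling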
condition set: S. cerevisiae Mot1-301 growth rescue, at 18.8 µM, stronger effect = higher value, percent above DMSO median, 100 means doubled
In all, about 320,000 compounds went through this assay and about 3,300 (1%) were called active. The full list was thinned out, with actives kept by preference.

# example entries with known answers
Cc1cccc(C)c1NC(=O)CN(C)C(=O)CCC(=O)c1ccccc1 = -17.7% (inactive)
Cc1ccc(S(=O)(=O)N2[C@@H](c3cccc4ccccc34)C(C(=O)O)=C[C@H]2C(C)(C)C)cc1 = 29.9% (inactive)
CO/N=C(/CS(=O)(=O)c1ccc(Br)cc1)c1ccc(OC)cc1 = -7.59% (inactive)
Cc1cccc(C)c1NC(=O)C(Cl)C(=O)c1ccccc1 (stereo unspecified) = 474% (active)
COc1ccc(CNC(=O)c2cc(C(=O)C3CC3)c[nH]2)cc1 = -7.94% (inactive)

As a next step, examine the compound that follows.
Assign growth rescue to the following record: CC1=CC(=O)C=CC1(C)C(Cl)(Cl)Cl (stereo unspecified)
385% (active)

====

experimental protocol: restored growth of temperature-sensitive Mot1-301 yeast – S. cerevisiae, ATP luminescence, 38.5C, SUMOylation pathway inhibitor project, primary screen (AID 2716);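 also: OY570 slx delta 5 strain wells were the positive control but not used for scaling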
condition set: S. cerevisiae Mot1-301 growth rescue, at 18.8 µM, stronger effect = higher value, percent above DMSO median, 100 means doubled
Out of some 320,000 compounds screened, about 3,300 (1%) were called active. The sample as a whole holds a higher share of actives than the screen did.
property: growth rescue (%)
Give bare numbers, in %.

CCS(=O)(=O)N1CCCC(C(=O)NCCCN(C)Cc2ccccc2)C1 (stereo not given) = 2.83

Parameter requested: growth rescue. Apply to each item below.
1. COc1ccccc1CCNC(=O)C(=O)NCCC1CCCCN1S(=O)(=O)c1cccs1 (stereo not given)
2. CC1CC2=C(CC1/C=N/NC(N)=S)C(C)(C)CCC2 (stereo not given)

-12.1
94.7

Parameter requested: growth rescue. Apply to each item below.
1. C=CCC(Nc1ccccc1)c1cccc(OC)c1OC (stereo not given)
2. COc1ccccc1CNC(=O)COC(=O)CNS(=O)(=O)c1ccc(NC(C)=O)cc1
3. O=C(NCc1ccccc1Cl)C(=O)NCC1CCCN1S(=O)(=O)c1cccs1 (stereo not given)

[-16.1, -0.994, 454]

Parameter requested: growth rescue. Apply to each item below.
1. COc1cc(C2C(C#N)=C(N)Oc3n[nH]c(-c4ccccn4)c32)cc(OC)c1OC (stereo not given)
2. COc1cccc(C(CC(=O)NCCN2CCOCC2)NS(=O)(=O)c2ccc(C)cc2)c1OC (stereo not given)
3. O=C(NCc1ccc(Cl)cc1)C(=O)NCC1CCCN1S(=O)(=O)c1cccs1 (stereo not given)
4. CCOC(=O)c1ccc(NC(=S)N2CCN(c3ccccn3)CC2)cc1

[-11.1, -1.44, -0.245, 4.51]

====

experimental protocol: restored growth of temperature-sensitive Mot1-301 yeast – S. cerevisiae, ATP luminescence, 38.5C, SUMOylation pathway inhibitor project, primary screen (AID 2716);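 also: OY570 slx delta 5 strain wells were the positive control but not used for scaling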
condition set: S. cerevisiae Mot1-301 growth rescue, at 18.8 µM, stronger effect = higher value, percent above DMSO median, 100 means doubled
Out of some 320,000 compounds screened, about 3,300 (1%) were called active. Many of the other results were omitted from the sample, so actives are more common in it than they were.
property: growth rescue

# example entries with known answers
O=S(=O)(Nc1ncnc2sccc12)c1cccc(F)c1 = 5.08% (inactive)
Cc1c(Br)cc(C(=O)N2CCCCCC2)c(C)c1C = 15.2% (inactive)
COc1ccc(OCC(=O)N2CCN(C(=O)COc3ccccc3)CC2)cc1 = -6.56% (inactive)
O=C(c1ccc(F)cc1)c1c[nH]c(C(=O)NCc2cccnc2)c1 = -16% (inactive)

Parameter requested: growth rescue. Apply to each item below.
1. O=C1C=CN2CCCC2CC1 (stereo unspecified)
2. COC(=O)Cn1cc(/C=C/[N+](=O)[O-])c2ccccc21

1. 51.5% (inactive)
2. 5.69% (inactive)

====

experimental protocol: restored growth of temperature-sensitive Mot1-301 yeast – S. cerevisiae, ATP luminescence, 38.5C, SUMOylation pathway inhibitor project, primary screen (AID 2716);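 also: OY570 slx delta 5 strain wells were the positive control but not used for scaling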
condition set: S. cerevisiae Mot1-301 growth rescue, at 18.8 µM, stronger effect = higher value, percent above DMSO median, 100 means doubled
The campaign covered roughly 320,000 compounds. About 3,300 (1%) were called active. What follows is part of a selection rich in actives, with near analogues and random picks from the rest.
property: growth rescue

Parameter requested: growth rescue. Apply to each item below.
1. C/C(CC(C)C)=N\Oc1nc(C)cc(C)n1
2. Nc1nonc1-n1nnc(C(=O)N/N=C/c2cc(Br)ccc2O)c1CSC1=NCCS1
3. CCCc1cc(=O)oc2c(C)c(OCC(=O)N3CCC(C(=O)O)CC3)ccc12
4. O=C(CCc1ccccc1)NNC(=O)c1ccc(Br)cc1
5. CC(C)(C)Oc1ccccc1Nc1nc(NCCO)nc(N2CCCC2)n1
6. O=C(CCNC(=O)c1ccc(Br)cc1)NCCCc1ccccc1
7. COc1ccc(Cl)cc1-n1c(C)cc(C(=O)OCC(=O)N2CC(=O)Nc3ccccc32)c1C

["-10.5% (inactive)", "-10.1% (inactive)", "10.4% (inactive)", "631% (active)", "8.32% (inactive)", "0.819% (inactive)", "-14.8% (inactive)"]
